Literature roundup of 72 kDa type IV collagenase (Homo sapiens, UniProt P08253) data, read-out IC50.
One number for each entry, in µM.

Example cases with answers are listed next.
# COMPOUND, MEASURED_PARAMETER, RESULT_NUMBER
measured = [
    ("O=C(O)[C@@H](Cc1c[nH]c2ccccc12)NS(=O)(=O)c1ccc(-c2nnn(-c3ccccc3)n2)cc1", "IC50", 0.019),
    ("C/C(=N\\NC(=O)Cn1c(=O)c(C)nc2ccccc21)c1ccccc1Cl", "IC50", 112),
    ("COc1ccc(S(=O)(=O)N(CC(=O)NC(C2CCCCC2)C2CCCCC2)C(CCSCc2ccccc2)C(=O)NO)cc1 (stereo not drawn)", "IC50", 0.00882),
]

Consider the record given below.
Result for COC(=O)[C@H](Cc1ccc(OCc2ccccc2)cc1)NC(C)=O , tested on 72 kDa type IV collagenase (Homo sapiens, UniProt P08253), IC50: 27.6

###

Literature roundup of 72 kDa type IV collagenase (Homo sapiens, UniProt P08253) data, read-out IC50.

Example cases with answers are listed next.
# MOLECULE, MEASUREMENT_TARGET, RESULT
measured = [
    ("CN1CC(CC(=O)N2CCCCC2)C[C@H](C(=O)NO)[C@H]1C(=O)N1CCN(c2ccccc2)CC1 (mixture of isomers)", "72 kDa type IV collagenase (Homo sapiens, UniProt P08253)", "0.081 µM"),
    ("Cc1cc(C#N)ccc1C1=CCN(S(=O)(=O)CC2(C(=O)NO)CCN(C(=O)OC[C@@H]3CCCN3)CC2)CC1", "72 kDa type IV collagenase (Homo sapiens, UniProt P08253)", "> 2 µM"),
]

Consider the record given below.
Lab note: measured IC50 of COc1ccc(S(=O)(=O)c2csc(S(=O)(=O)NC(CC#Cc3ccccc3)C(=O)O)c2)cc1 (stereo not drawn) was > 10 µM

###

Literature roundup of 72 kDa type IV collagenase (Homo sapiens, UniProt P08253) data, read-out pIC50.
pIC50: −log10 of the molar value.

Example cases with answers are listed next.
# COMPOUND, MEASUREMENT_TARGET, RESULT
measured = [
    ("O=C(NO)[C@H]1C[C@@H](OC(=O)N2CCCC2)CN[C@@H]1C(=O)N1CC=C(c2ccccc2)CC1", "72 kDa type IV collagenase (Homo sapiens, UniProt P08253)", "> 8.30"),
    ("CCCC[C@H]1CN([C@@H](Cc2ccc(O)cc2)CN2CCC[C@H]2CN2C(=O)C(=O)NC[C@H]2Cc2ccc3ccccc3c2)C(=O)C(=O)N1CCC12CC3CC(CC(C3)C1)C2", "72 kDa type IV collagenase (Homo sapiens, UniProt P08253)", "< 4.00"),
    ("CC1=C(c2ccccc2)CCN(C(=O)[C@H]2NCC3(CC3)C[C@@H]2C(=O)NO)C1", "72 kDa type IV collagenase (Homo sapiens, UniProt P08253)", "< 5.30"),
    ("COc1ccc(Oc2ccc(S(=O)(=O)C3CCCCCN(O)C3=O)cc2)cc1 (stereo not given)", "72 kDa type IV collagenase (Homo sapiens, UniProt P08253)", "< 6.00"),
]

Consider the record given below.
Result for CC(C)Oc1ccc(Oc2ccc(S(=O)(=O)C3(C(=O)NO)CCOCC3)cc2)cc1 , tested on 72 kDa type IV collagenase (Homo sapiens, UniProt P08253), pIC50: > 10.00
